System: HeLa, MDA-MB231 and Jurkat T cells
Measurement protocol: Cell proliferation screen by [3H]-thymidine incorporation
Assay type: cell-based
Run parameters: 2.5 µM, 24 h
Measurement kind: Inhibition of cell proliferation ([3H]-thymidine incorporation)

Inhibition of cell proliferation ([3H]-thymidine incorporation) in this record for CO[C@H]1/C=C/CC/C=C/C(=O)O[C@@H](/C(C)=C/[C@H](C)C(=O)CCCC2CC(=O)NC(=O)C2)[C@@H](C)[C@@H]1O [Isomigrastatin, isomigrastatin] : highly active

Measured Inhibition of cell proliferation ([3H]-thymidine incorporation) of CO[C@H]1/C=C/CC/C=C/C(=O)O[C@@H](/C(C)=C/[C@H](C)C(=O)/C=C/CC2CC(=O)NC(=O)C2)[C@@H](C)[C@@H]1O [compound 8, Didehydro Isomigrastatin] : highly active

The molecule listed as C/C(=C\[C@H](C)C(=O)C[C@H](O)CC1CC(=O)NC(=O)C1)[C@@H]1OC(=O)CCCC/C=C/C=C\[C@@H]1C [compound 7, 2H Lactimidomycin] has a reported Inhibition of cell proliferation ([3H]-thymidine incorporation) of highly active
